Values compiled from patent US8507516B2.

Target: α-7 nicotinic ACh receptor ion channels expressed in mammalian HEK 293 cells (Rattus norvegicus, UniProt Q05941)
Construct: expressed in transfected cells
Sequence (Q05941 23-502): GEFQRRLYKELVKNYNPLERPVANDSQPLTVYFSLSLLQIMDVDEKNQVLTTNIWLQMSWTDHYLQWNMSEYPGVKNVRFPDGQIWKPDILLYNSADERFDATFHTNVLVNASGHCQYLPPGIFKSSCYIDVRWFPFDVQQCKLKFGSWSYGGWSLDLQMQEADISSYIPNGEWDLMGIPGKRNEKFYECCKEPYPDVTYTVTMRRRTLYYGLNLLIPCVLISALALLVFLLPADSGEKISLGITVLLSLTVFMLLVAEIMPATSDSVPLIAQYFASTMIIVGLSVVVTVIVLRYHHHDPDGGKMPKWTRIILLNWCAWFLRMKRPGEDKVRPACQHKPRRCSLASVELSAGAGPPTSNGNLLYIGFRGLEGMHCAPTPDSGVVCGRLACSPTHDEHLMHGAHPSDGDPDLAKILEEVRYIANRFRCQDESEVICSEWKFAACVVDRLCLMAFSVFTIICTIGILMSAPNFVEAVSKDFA
Assay: Ca2+-sensitive, fluorescence-based assay for α-7 nicotinic acetylcholine receptor channel function (FLIPR)
Type: cell-based
Conditions: read-out: FLIPR α7 actvity rating (EC50), activity class based on EC50, Ca2+ influx
Procedure: II) A Ca^2+-Sensitive, Fluorescence-Based Assay α-7 for Nicotinic Acetylcholine Receptor Channel Function In Mammalian Cells (“FLIPR”). Lead compounds are evaluated for agonist activity at α-7, α3β4, α4αβ2, and α1β1δ1ε sub-types of nicotinic ACh receptor ion channels expressed in mammalian HEK 293 cells. Agonist potency and efficacy values are determined from kinetic fluorescence Ca^2+ influx measurements made using a 384 well FLIPR (Fluorescence Image Plate Reader). […]
pEC50: −log10 of the molar value.
VALUE KIND: pEC50

Q: Requested read-out: pEC50. Entry: c1cnc2sc(NC3=NCC4(CN5CCCC4C5)O3)nc2c1 (single isomer, unassigned) [Example 5b]
Ans: > 7.00
